# interaction score annotations
Molecular target: T1, 4H3628-bN
T1 chain: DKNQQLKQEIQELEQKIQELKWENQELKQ
Assay: two-hybrid library CCNG1;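 note: natural log of median RNA to DNA barcode read ratio; higher means stronger binding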

Previously resolved entries follow.
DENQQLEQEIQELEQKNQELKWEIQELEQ [4H1081-bN] :: -0.745
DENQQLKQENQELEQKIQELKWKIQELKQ [4H1710-bN] :: 1.45
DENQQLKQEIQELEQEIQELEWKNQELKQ [4H1544-bN] :: 0.019

-- ask Data request, read-out interaction score, for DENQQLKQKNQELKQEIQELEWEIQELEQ [4H1985-bN]
-- reply -1.17

-- ask Data request, read-out interaction score, for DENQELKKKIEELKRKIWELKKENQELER [4H1899-bH]
-- reply 0.735

-- ask Data request, read-out interaction score, for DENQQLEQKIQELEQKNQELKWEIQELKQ [4H1338-bN]
-- reply -0.229

-- ask Data request, read-out interaction score, for DKNQQLEQKNQELEQKIQELKWEIQELEQ [4H3497-bN]
-- reply -0.414

-- ask Data request, read-out interaction score, for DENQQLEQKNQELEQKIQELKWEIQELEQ [4H1449-bN]
-- reply -0.461

-- ask Data request, read-out interaction score, for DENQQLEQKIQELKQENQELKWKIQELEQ [4H1373-bN]
-- reply -0.846

-- ask Data request, read-out interaction score, for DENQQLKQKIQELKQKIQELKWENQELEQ [4H1899-bN]
-- reply 0.469

-- ask Data request, read-out interaction score, for DKNQQLEQEIQELKQENQELKWEIQELKQ [4H3162-bN]
-- reply -0.668

-- ask Data request, read-out interaction score, for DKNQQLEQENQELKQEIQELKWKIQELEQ [4H3277-bN]
-- reply -0.458

-- ask Data request, read-out interaction score, for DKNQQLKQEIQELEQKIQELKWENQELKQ [4H3628-bN]
-- reply -0.36

-- ask Data request, read-out interaction score, for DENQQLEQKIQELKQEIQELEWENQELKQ [4H1348-bN]
-- reply -0.12
